- target: UniProt:Q9P1W9
- Sequence (Q9P1W9 whole entry, species assumed): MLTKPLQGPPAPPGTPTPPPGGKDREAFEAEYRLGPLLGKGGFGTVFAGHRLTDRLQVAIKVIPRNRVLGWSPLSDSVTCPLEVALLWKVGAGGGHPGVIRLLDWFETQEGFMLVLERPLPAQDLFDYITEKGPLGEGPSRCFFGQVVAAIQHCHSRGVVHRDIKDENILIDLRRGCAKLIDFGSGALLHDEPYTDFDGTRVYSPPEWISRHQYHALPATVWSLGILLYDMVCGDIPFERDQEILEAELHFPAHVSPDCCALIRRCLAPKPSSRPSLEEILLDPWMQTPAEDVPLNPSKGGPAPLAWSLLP
pIC50: −log10 of the molar value.
reported.property: pIC50

Query :: Entry CC[C@@H]1CN(C(=O)NCC(F)(F)F)C[C@@H]1c1cnc2cnc3[nH]ccc3n12 [upadacitinib] : reported pIC50 = ?
Result :: < 5.00

====

- target: FAK (Homo sapiens, UniProt Q05397)
- Sequence (Q05397 whole entry, species assumed): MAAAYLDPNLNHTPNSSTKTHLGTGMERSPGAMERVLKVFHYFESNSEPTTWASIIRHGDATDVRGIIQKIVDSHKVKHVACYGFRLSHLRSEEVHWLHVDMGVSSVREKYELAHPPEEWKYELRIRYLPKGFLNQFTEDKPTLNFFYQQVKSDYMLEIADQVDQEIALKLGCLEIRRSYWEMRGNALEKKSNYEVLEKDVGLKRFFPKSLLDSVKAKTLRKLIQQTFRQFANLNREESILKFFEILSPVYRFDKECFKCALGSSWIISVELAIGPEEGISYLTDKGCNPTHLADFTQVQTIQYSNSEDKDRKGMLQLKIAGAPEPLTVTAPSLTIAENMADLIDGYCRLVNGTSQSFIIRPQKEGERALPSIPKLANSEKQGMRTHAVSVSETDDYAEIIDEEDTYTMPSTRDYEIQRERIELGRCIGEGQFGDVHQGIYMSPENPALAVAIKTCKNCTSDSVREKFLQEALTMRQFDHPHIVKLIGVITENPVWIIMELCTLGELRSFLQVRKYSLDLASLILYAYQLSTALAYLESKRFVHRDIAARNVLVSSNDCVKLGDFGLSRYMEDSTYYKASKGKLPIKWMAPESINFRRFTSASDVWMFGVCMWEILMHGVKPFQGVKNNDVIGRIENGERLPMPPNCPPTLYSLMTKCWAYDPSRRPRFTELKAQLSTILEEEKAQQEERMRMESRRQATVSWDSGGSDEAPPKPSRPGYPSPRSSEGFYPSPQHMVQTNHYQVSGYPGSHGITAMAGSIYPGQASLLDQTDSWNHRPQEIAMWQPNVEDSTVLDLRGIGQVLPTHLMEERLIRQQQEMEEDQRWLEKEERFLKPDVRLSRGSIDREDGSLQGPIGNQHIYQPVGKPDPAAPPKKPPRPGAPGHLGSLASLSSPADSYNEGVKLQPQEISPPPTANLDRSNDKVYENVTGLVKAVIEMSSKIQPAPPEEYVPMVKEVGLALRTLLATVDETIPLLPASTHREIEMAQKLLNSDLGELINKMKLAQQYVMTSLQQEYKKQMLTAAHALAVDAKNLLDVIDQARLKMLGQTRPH
reported.property: IC50

Query :: Entry "CC[C@@H]1CN(C(=O)NCC(F)(F)F)C[C@@H]1c1cnc2cnc3[nH]ccc3n12" : reported IC50 = ?
Result :: > 10 µM

====

- target: CDK9/Cyclin K (Homo sapiens)
- assay.text: trFRET binding kinome profiling
pIC50: −log10 of the molar value.
reported.property: pIC50

Query :: Entry "CC[C@@H]1CN(C(=O)NCC(F)(F)F)C[C@@H]1c1cnc2cnc3[nH]ccc3n12" : reported pIC50 = ?
Result :: < 5.00

====

- target: CDK8/Cyclin C (Homo sapiens, UniProt P49336)
- assay.text: trFRET binding kinome profiling
reported.property: IC50

Query :: Entry "CC[C@@H]1CN(C(=O)NCC(F)(F)F)C[C@@H]1c1cnc2cnc3[nH]ccc3n12" : reported IC50 = ?
Result :: > 10 µM

====

- target: PKCzeta (Homo sapiens)
reported.property: IC50

Query :: Identify the measured IC50 of "CC[C@@H]1CN(C(=O)NCC(F)(F)F)C[C@@H]1c1cnc2cnc3[nH]ccc3n12" for PKCzeta (Homo sapiens).
Result :: > 10 µM

====

- target: MAP3K10 (Homo sapiens, UniProt Q02779)
reported.property: IC50

Query :: Entry "CC[C@@H]1CN(C(=O)NCC(F)(F)F)C[C@@H]1c1cnc2cnc3[nH]ccc3n12" : reported IC50 = ?
Result :: > 10 µM

====

- target: PKCtheta (Homo sapiens, UniProt Q04759)
- Sequence (Q04759 whole entry): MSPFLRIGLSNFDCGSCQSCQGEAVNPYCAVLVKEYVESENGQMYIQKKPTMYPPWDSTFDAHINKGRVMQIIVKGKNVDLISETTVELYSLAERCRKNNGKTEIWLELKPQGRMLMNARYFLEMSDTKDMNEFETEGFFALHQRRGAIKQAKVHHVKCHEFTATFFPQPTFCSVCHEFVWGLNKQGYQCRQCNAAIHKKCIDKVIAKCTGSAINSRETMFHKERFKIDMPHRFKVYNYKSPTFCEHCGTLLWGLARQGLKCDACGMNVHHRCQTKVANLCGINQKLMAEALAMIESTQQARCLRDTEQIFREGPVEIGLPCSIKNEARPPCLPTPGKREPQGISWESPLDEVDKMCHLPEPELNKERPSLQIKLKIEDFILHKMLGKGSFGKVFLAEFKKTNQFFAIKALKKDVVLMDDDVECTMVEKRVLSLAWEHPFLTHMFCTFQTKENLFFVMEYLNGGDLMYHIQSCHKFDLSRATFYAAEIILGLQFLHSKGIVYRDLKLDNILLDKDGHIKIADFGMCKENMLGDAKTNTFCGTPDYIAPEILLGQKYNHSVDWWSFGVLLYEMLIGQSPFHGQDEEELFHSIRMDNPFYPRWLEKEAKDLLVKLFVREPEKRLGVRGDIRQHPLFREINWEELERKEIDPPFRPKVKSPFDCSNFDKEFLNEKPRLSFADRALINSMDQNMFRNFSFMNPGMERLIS
reported.property: pIC50
Please express pIC50 as -log10 of the molar concentration.

Query :: Identify the measured pIC50 of "CC[C@@H]1CN(C(=O)NCC(F)(F)F)C[C@@H]1c1cnc2cnc3[nH]ccc3n12" for PKCtheta (Homo sapiens, UniProt Q04759).
Result :: 5.29

====

- target: Gsk3a (Homo sapiens, UniProt P49840)
pIC50: −log10 of the molar value.
reported.property: pIC50

Query :: Identify the measured pIC50 of CC[C@@H]1CN(C(=O)NCC(F)(F)F)C[C@@H]1c1cnc2cnc3[nH]ccc3n12 [upadacitinib] for Gsk3a (Homo sapiens, UniProt P49840).
Result :: < 5.00

====

- target: MAP4K4 (Homo sapiens, UniProt O95819)
reported.property: IC50

Query :: Identify the measured IC50 of "CC[C@@H]1CN(C(=O)NCC(F)(F)F)C[C@@H]1c1cnc2cnc3[nH]ccc3n12" for MAP4K4 (Homo sapiens, UniProt O95819).
Result :: > 10 µM

====

- target: RET (Homo sapiens)
- assay.text: trFRET binding kinome profiling
reported.property: pIC50
Please express pIC50 as -log10 of the molar concentration.

Query :: Entry CC[C@@H]1CN(C(=O)NCC(F)(F)F)C[C@@H]1c1cnc2cnc3[nH]ccc3n12 [upadacitinib] : reported pIC50 = ?
Result :: 5.62

====

- target: MAP2K3 (Homo sapiens)
- Sequence (P46734 whole entry, species assumed): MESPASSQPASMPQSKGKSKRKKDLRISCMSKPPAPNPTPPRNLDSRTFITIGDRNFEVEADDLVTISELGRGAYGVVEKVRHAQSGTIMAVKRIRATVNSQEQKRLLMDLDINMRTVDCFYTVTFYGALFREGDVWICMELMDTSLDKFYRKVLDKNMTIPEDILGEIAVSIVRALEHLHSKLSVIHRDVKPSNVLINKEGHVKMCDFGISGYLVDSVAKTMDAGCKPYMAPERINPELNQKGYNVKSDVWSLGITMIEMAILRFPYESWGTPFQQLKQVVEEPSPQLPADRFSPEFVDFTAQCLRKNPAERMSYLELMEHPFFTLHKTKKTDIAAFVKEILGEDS
pIC50: −log10 of the molar value.
reported.property: pIC50

Query :: Entry "CC[C@@H]1CN(C(=O)NCC(F)(F)F)C[C@@H]1c1cnc2cnc3[nH]ccc3n12" : reported pIC50 = ?
Result :: < 5.00

====

- System: IL-15 induced STAT5 phosphorylation
- assay.text: IL-15 induced STAT5 phosphorylation in activated T-cells
- Type: cell-based
- run.conditions: Homo sapiens, T-cell; T-blasts, JAK 1/3; read-out: Human IC50, IL-15 pSTAT5
reported.property: pIC50
Please express pIC50 as -log10 of the molar concentration.

Query :: Entry "CC[C@@H]1CN(C(=O)NCC(F)(F)F)C[C@@H]1c1cnc2cnc3[nH]ccc3n12" : reported pIC50 = ?
Result :: 7.66

====

- target: TTK (Homo sapiens, UniProt P33981)
pIC50: −log10 of the molar value.
reported.property: pIC50

Query :: Identify the measured pIC50 of "CC[C@@H]1CN(C(=O)NCC(F)(F)F)C[C@@H]1c1cnc2cnc3[nH]ccc3n12" for TTK (Homo sapiens, UniProt P33981).
Result :: < 5.00

====

- target: Syk (Homo sapiens)
- assay.text: trFRET binding kinome profiling
reported.property: IC50

Query :: Entry CC[C@@H]1CN(C(=O)NCC(F)(F)F)C[C@@H]1c1cnc2cnc3[nH]ccc3n12 [upadacitinib] : reported IC50 = ?
Result :: > 10 µM

====

- target: Nek2 (Homo sapiens)
- Sequence (P51955 1-445): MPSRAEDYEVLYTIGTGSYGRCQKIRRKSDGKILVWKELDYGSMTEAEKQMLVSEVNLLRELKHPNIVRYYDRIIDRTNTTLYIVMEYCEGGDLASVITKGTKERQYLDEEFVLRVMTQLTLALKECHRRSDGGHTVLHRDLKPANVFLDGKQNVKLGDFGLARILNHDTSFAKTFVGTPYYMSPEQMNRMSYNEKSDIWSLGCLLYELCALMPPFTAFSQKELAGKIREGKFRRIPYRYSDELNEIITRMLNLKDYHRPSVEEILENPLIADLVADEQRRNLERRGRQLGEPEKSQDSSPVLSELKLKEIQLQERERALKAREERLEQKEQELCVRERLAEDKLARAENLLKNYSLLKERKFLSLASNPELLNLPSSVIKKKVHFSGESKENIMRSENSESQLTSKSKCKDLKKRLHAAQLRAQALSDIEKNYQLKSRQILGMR
pIC50: −log10 of the molar value.
reported.property: pIC50

Query :: Identify the measured pIC50 of "CC[C@@H]1CN(C(=O)NCC(F)(F)F)C[C@@H]1c1cnc2cnc3[nH]ccc3n12" for Nek2 (Homo sapiens).
Result :: < 5.00

====

- target: Erk2 (Homo sapiens, UniProt P28482)
- Sequence (P28482 whole entry, species assumed): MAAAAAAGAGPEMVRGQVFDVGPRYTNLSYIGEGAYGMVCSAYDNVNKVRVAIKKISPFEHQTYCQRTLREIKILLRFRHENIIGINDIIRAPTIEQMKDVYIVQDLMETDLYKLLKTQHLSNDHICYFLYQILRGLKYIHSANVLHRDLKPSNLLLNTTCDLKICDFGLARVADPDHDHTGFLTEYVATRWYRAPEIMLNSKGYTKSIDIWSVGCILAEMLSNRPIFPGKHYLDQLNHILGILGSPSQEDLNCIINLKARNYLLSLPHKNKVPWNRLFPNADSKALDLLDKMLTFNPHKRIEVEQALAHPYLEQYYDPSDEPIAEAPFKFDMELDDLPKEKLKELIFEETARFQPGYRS
- assay.text: trFRET binding kinome profiling
- Description: JAK activity assays using isolated kinase domains in the presence of 0.1 mM ATP and trFRET kinome profiling were conducted as described previously (17).
reported.property: IC50

Query :: Entry "CC[C@@H]1CN(C(=O)NCC(F)(F)F)C[C@@H]1c1cnc2cnc3[nH]ccc3n12" : reported IC50 = ?
Result :: > 10 µM

====

- target: TNK2 (Homo sapiens, UniProt Q07912)
reported.property: IC50 (µM)
Express it in µM; write the number only.

Query :: Entry "CC[C@@H]1CN(C(=O)NCC(F)(F)F)C[C@@H]1c1cnc2cnc3[nH]ccc3n12" : reported IC50 = ?
Result :: 5.1

====

- target: DDR1 (Homo sapiens)
- Sequence (Q08345 19-913, species assumed): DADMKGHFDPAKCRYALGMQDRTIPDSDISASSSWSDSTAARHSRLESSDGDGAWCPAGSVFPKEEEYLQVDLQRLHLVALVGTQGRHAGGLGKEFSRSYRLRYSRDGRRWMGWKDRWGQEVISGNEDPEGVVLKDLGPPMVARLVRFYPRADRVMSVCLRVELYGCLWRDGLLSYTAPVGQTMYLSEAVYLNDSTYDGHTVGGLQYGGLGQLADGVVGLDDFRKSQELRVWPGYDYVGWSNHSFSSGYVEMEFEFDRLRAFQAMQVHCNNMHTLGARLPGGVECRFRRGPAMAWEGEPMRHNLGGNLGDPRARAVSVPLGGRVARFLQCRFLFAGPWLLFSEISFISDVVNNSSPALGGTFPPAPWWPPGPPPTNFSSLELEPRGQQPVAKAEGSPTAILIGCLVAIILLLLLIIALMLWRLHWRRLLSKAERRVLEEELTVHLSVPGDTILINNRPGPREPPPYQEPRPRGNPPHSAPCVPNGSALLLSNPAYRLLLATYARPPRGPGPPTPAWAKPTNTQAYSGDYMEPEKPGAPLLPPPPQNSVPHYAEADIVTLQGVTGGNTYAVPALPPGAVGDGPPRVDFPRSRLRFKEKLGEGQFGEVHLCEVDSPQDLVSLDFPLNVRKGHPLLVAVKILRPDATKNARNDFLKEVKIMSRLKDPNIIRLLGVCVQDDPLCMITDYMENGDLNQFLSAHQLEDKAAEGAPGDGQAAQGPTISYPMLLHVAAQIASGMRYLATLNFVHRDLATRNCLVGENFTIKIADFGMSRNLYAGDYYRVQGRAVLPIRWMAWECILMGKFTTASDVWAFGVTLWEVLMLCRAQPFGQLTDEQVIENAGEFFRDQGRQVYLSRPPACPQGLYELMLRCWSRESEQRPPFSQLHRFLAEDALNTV
reported.property: IC50

Query :: Identify the measured IC50 of "CC[C@@H]1CN(C(=O)NCC(F)(F)F)C[C@@H]1c1cnc2cnc3[nH]ccc3n12" for DDR1 (Homo sapiens).
Result :: > 10 µM

====

- target: UniProt:P15056
pIC50: −log10 of the molar value.
reported.property: pIC50

Query :: Entry "CC[C@@H]1CN(C(=O)NCC(F)(F)F)C[C@@H]1c1cnc2cnc3[nH]ccc3n12" : reported pIC50 = ?
Result :: < 5.00

====

- target: TAOK2 (Homo sapiens)
- Sequence (Q9UL54 whole entry, species assumed): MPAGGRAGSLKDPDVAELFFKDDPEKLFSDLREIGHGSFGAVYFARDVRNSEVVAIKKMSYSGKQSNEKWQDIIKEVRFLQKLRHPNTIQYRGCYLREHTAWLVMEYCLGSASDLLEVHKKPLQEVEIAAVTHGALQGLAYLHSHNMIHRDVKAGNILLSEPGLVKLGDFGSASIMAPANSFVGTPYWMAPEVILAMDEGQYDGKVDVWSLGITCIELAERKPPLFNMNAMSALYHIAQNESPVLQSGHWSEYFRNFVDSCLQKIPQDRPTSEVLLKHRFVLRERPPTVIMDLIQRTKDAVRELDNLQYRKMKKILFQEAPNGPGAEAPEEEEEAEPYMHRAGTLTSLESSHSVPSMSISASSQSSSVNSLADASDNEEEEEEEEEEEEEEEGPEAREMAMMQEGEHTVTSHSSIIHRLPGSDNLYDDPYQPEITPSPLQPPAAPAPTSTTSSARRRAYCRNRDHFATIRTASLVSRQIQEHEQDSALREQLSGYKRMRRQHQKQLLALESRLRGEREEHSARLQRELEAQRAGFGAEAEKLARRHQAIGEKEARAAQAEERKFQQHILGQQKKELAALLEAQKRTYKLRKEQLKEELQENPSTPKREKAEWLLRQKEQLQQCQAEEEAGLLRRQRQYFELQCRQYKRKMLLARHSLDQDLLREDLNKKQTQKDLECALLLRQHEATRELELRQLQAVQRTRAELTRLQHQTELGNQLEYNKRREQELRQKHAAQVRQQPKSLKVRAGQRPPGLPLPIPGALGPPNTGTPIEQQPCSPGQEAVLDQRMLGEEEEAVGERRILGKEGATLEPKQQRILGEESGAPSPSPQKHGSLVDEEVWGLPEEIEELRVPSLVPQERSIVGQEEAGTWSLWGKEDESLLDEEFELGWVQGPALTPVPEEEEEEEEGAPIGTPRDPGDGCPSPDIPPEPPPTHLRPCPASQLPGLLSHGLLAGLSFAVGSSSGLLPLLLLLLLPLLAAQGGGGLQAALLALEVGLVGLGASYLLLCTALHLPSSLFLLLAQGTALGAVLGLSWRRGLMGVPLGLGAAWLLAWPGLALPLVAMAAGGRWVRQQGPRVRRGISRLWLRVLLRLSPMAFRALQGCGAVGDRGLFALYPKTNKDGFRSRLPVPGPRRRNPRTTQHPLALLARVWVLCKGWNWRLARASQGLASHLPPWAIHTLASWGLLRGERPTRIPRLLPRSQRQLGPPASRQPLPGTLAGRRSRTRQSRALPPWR
reported.property: IC50

Query :: Identify the measured IC50 of CC[C@@H]1CN(C(=O)NCC(F)(F)F)C[C@@H]1c1cnc2cnc3[nH]ccc3n12 [upadacitinib] for TAOK2 (Homo sapiens).
Result :: > 10 µM

====

- target: Wee1 (Homo sapiens, UniProt P30291)
reported.property: IC50

Query :: Entry "CC[C@@H]1CN(C(=O)NCC(F)(F)F)C[C@@H]1c1cnc2cnc3[nH]ccc3n12" : reported IC50 = ?
Result :: > 10 µM

====

- target: Flt1 (Homo sapiens, UniProt P17948)
pIC50: −log10 of the molar value.
reported.property: pIC50

Query :: Entry "CC[C@@H]1CN(C(=O)NCC(F)(F)F)C[C@@H]1c1cnc2cnc3[nH]ccc3n12" : reported pIC50 = ?
Result :: < 5.00

====

- target: Rsk2 (Homo sapiens, UniProt P51812)
reported.property: IC50

Query :: Identify the measured IC50 of CC[C@@H]1CN(C(=O)NCC(F)(F)F)C[C@@H]1c1cnc2cnc3[nH]ccc3n12 [upadacitinib] for Rsk2 (Homo sapiens, UniProt P51812).
Result :: > 9.6 µM

====

- target: CDK2 (Homo sapiens, UniProt P24941)
pIC50: −log10 of the molar value.
reported.property: pIC50

Query :: Identify the measured pIC50 of CC[C@@H]1CN(C(=O)NCC(F)(F)F)C[C@@H]1c1cnc2cnc3[nH]ccc3n12 [upadacitinib] for CDK2 (Homo sapiens, UniProt P24941).
Result :: < 5.00

====

- target: LCK (Homo sapiens, UniProt P06239)
reported.property: IC50

Query :: Identify the measured IC50 of "CC[C@@H]1CN(C(=O)NCC(F)(F)F)C[C@@H]1c1cnc2cnc3[nH]ccc3n12" for LCK (Homo sapiens, UniProt P06239).
Result :: > 10 µM

Just for reference, paper PMC6390583 is where these values come from.
